target: UniProt:P11712; assay: in vitro; conditions: pH 7.4
Sequence (P11712 whole entry): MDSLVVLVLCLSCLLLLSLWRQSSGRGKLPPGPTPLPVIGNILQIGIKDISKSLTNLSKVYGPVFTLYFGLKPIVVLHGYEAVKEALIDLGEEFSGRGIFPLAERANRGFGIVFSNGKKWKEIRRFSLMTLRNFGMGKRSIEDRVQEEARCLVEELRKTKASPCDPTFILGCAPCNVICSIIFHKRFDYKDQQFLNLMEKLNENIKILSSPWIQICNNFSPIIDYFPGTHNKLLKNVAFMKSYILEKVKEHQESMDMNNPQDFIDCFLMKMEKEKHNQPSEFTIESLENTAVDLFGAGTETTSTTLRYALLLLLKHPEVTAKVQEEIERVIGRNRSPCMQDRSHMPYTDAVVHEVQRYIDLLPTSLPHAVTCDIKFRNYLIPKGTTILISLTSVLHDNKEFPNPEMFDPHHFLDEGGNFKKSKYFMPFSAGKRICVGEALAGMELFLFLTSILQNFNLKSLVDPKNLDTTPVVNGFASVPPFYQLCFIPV
Measured property: inhibition at 10 µM

Asked: Find inhibition at 10 µM (UniProt:P11712) for the entry CN1CCN(C)/C(=N/c2ccc([N+](=O)[O-])cc2C(=O)Nc2ccccc2)C1
Given back: < 30%

* * *

experiment: physchem; conditions: pH 7.4, aqueous solubility, 1× PBS, pH 7.4
Measured property: solubility (µM)
One number for each entry, in µM.

Asked: What value of solubility has been recorded for this entry: CN1CCN(C)/C(=N/c2ccc([N+](=O)[O-])cc2C(=O)Nc2ccccc2)C1
Given back: 110

* * *

test: physchem; details: aqueous solubility, VEEV CPE assay medium
Measured property: solubility
Please answer using the number first and the unit second.

Asked: What value of solubility has been recorded for this entry: CN1CCN(C)/C(=N/c2ccc([N+](=O)[O-])cc2C(=O)Nc2ccccc2)C1
Given back: 13.1 µg/mL
